study system: hTRPV1 (Homo sapiens, UniProt Q8NER1)
Construct: expressed in transfected cells; host or cells: HEK293
Sequence (Q8NER1 whole entry): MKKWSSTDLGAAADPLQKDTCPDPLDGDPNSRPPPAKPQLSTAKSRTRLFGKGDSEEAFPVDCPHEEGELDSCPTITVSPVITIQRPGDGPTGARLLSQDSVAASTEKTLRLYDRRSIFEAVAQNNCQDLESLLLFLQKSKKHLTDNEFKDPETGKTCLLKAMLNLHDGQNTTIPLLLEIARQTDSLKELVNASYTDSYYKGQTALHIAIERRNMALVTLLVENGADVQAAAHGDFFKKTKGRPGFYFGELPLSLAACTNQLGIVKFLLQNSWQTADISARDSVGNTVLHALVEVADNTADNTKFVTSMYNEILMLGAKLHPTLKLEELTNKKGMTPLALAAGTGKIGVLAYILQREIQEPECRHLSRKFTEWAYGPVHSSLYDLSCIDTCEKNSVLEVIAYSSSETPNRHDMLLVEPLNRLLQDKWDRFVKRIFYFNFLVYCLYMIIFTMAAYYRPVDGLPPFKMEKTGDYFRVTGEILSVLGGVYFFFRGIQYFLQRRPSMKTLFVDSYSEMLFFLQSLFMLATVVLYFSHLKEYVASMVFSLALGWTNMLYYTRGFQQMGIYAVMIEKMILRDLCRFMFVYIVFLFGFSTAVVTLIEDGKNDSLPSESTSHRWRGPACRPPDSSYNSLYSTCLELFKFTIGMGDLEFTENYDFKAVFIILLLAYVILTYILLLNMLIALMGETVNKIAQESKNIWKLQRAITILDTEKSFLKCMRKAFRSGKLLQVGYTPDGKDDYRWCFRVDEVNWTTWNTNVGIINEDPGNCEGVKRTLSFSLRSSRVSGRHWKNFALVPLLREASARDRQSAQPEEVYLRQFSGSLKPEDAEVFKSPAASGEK
assay: Human TRPV1 (hTRPV1) functional assay, FLIPR intracellular Ca2+, capsaicin challenge
Type: cell-based
protocol conditions: test concentration of 0.2 μm; HEK293 cells expressing hTRPV1, capsaicin 0.030 μM challenge; read-out: percent inhibition (symbol b)
Task for the reader: assign each of the following molecules its reported inhibition at 0.2 µM.
Reply with the number, then its unit.

NS(=O)(=O)c1ccccc1-c1ccc2[nH]c(CNc3ccc(C(F)(F)F)cc3)nc2c1; 46%
CS(=O)(=O)c1ccccc1-c1ccc2[nH]c(COc3ccc(SC(F)(F)F)cc3)nc2c1; 99%
COc1ccc(OCc2nc3cc(-c4ccccc4S(C)(=O)=O)ccc3[nH]2)cc1; 6%
CS(=O)(=O)c1ccccc1-c1ccc2[nH]c(COc3ccccc3Cl)nc2c1; 14%
CCOc1ccc(OCc2nc3cc(-c4ccccc4S(C)(=O)=O)ccc3[nH]2)cc1; 96%

Would you mind giving inhibition at 0.2 µM for every molecule in the list below?
1. CS(=O)(=O)c1ccccc1-c1ccc2[nH]c(COc3cccc(F)c3)nc2c1
2. O=S(=O)(c1ccccc1-c1ccc2[nH]c(COc3ccc(C(F)(F)F)cc3)nc2c1)C(F)(F)F
3. CN(C)C(=O)C(O)c1ccccc1-c1ccc2[nH]c(COc3ccc(C(F)(F)F)cc3)nc2c1 (centres unmarked)

20%
13%
89%

Would you mind giving inhibition at 0.2 µM for every molecule in the list below?
1. CN(CCO)C(=O)c1ccccc1-c1ccc2[nH]c(COc3ccc(C(F)(F)F)cc3)nc2c1
2. NS(=O)(=O)c1ccccc1-c1ccc2[nH]c(CS(=O)(=O)c3ccc(Cl)cc3)nc2c1
3. O=C(CO)c1ccccc1-c1ccc2[nH]c(COc3ccc(C(F)(F)F)cc3)nc2c1

21%
2%
33%

====

study system: hTRPV1 (Homo sapiens)
Construct: expressed in transfected cells; host or cells: HEK293
assay: Human TRPV1 (hTRPV1) functional assay, FLIPR intracellular Ca2+, capsaicin challenge
Format: cell-based
protocol conditions: test concentration of 0.2 μm; HEK293 cells expressing hTRPV1, capsaicin 0.030 μM challenge; read-out: percent inhibition (symbol b)
Task for the reader: assign each of the following molecules its reported inhibition at 0.2 µM.
Give bare numbers, in %.

Some solved cases for reference:
CON(C)C(=O)C(O)c1ccccc1-c1ccc2[nH]c(COc3ccc(C(F)(F)F)cc3)nc2c1 (stereo not drawn); 89
CS(=O)(=O)c1ccccc1-c1ccc2[nH]c(COc3ccccc3C(F)(F)F)nc2c1; 60

We now examine a further molecule.
Data request, read-out inhibition at 0.2 µM, for CC(O)CS(=O)(=O)c1ccccc1-c1ccc2[nH]c(COc3ccc(C(F)(F)F)cc3)nc2c1 (stereo not drawn)
90

====

study system: hTRPV1 (Homo sapiens)
Construct: expressed in transfected cells; host or cells: HEK293
assay: Human TRPV1 (hTRPV1) functional assay, FLIPR intracellular Ca2+, capsaicin challenge
Assay type: cell-based
protocol conditions: test concentration of 0.2 μm; HEK293 cells expressing hTRPV1, capsaicin 0.030 μM challenge; read-out: percent inhibition (symbol b)
Threshold check on inhibition at 0.2 µM: at or above 60% gives fulfilled, strictly below gives not fulfilled.

Answer whether inhibition at 0.2 µM of CNS(=O)(=O)c1ccccc1-c1ccc2[nH]c(COc3ccc(C(C)C)cc3)nc2c1 is greater than or equal to 60%.
fulfilled

Param item: CS(=O)(=O)Nc1ccccc1-c1ccc2[nH]c(COc3ccc(C4CC4)cc3)nc2c1
fulfilled

Param item: Cc1ccc(OCc2nc3cc(-c4ccccc4S(C)(=O)=O)ccc3[nH]2)c(C)c1
fulfilled

Param item: CS(=O)(=O)c1ccccc1-c1ccc2[nH]c(COc3ccc(F)cc3F)nc2c1
not fulfilled

Param item: CS(=O)(=O)c1ccccc1-c1ccc2[nH]c(COc3cc(F)c(F)cc3F)nc2c1
not fulfilled

Param item: CC(=O)c1ccccc1-c1ccc2[nH]c(COc3ccc(C(F)(F)F)cc3)nc2c1
fulfilled

Param item: CS(=O)(=O)c1ccccc1-c1ccc2[nH]c(COc3ccc4c(c3)OCO4)nc2c1
fulfilled

====

study system: hTRPV1 (Homo sapiens, UniProt Q8NER1)
Construct: expressed in transfected cells; host or cells: HEK293
assay: Human TRPV1 (hTRPV1) functional assay, FLIPR intracellular Ca2+, capsaicin challenge
Format: cell-based
protocol conditions: test concentration of 0.5 μm; HEK293 cells expressing hTRPV1, capsaicin 0.030 μM challenge; read-out: percent inhibition (symbol a)
metric name: inhibition at 0.5 µM (%)
Give bare numbers, in %.

Some solved cases for reference:
NS(=O)(=O)c1ccccc1-c1ccc2[nH]c(NCc3ccc(C(F)(F)F)cc3)nc2c1 [Cpd 136]; 99
CC(O)c1ccccc1-c1ccc2[nH]c(COc3ccc(C(F)(F)F)cc3)nc2c1 (stereo not drawn) [Cpd 110]; 98

Data request, read-out inhibition at 0.5 µM, for NS(=O)(=O)c1ccccc1-c1ccc2[nH]c(COc3ccccc3)nc2c1 [Cpd 26]
87
